Tested on: UO-31 renal
Assay: NCI-60 one-dose screen, 48 h
Conditions: 10 µM unless noted
The panel holds about 83,000 compounds, 20% with a hit somewhere; the sample as a whole holds those more often. Calls of active or inactive are those of the source. Rule for the calls: active = growth percent below 10; inactive = the rest.
Hi! Could you answer with just one of these? active, inactive

# count of solved cases: 4
| molecule | assigned_label |
| --- | --- |
| O=C1NC(=O)C(CN2C(=O)C3(c4ccccc42)[C@H](Cl)C(=O)N3c2ccccc2)C(=O)N1 (stereo not given in full) | inactive |
| CCOC(=O)Nc1cc(Cl)c([N+](=O)[O-])c(NC(=O)OCC)n1 | inactive |
| [O]=[Sn]([CH]1CCCCC1)[CH]1CCCCC1 | active |
| CC(=O)[O][Hg][CH2]C1(C)COC(C)([CH2][Hg][O]C(C)=O)CO1 (stereo not given) | active |

Please find the next molecule below.
Data request: Tell me the recorded outcome of this test for O=C1C=CC(=O)C2C1C1(Cl)C(Cl)=C(Cl)C2(Cl)C1(Cl)Cl (stereo not given) .
Data returned: inactive

The reported numbers originate from PubChem BioAssay (NCI).
